- assayOverview: Proliferation inhibition assay (CellTiter-Glo), Ba/F3 JAK2 V617F
- Assay type: cell-based
- recordedConditions: mouse, Ba/F3 (JAK2 V617F) cells; with 10 ng/ml rmIL-3, 72 h; read-out: Ba/F3 JAK2 V617F + IL3, CC50 3 days
- Procedure: Ba/F3 (JAK2 wt) (ABM, T3076) cells and Ba/F3 (JAK2 V617F) (WuXi AppTec) cells were grown in RPMI-1640 (Gibco, cat. number 21870) supplemented with 10% FBS (Hyclone Laboratories Inc, Cat #SV30160.03), 1× Antibiotic-antimycotic (Gibco, Cat #15240-062), 2× Sodium pyruvate (Paneco, cat #F023), 2× Essential amino acids (Paneco, cat #F115/100), 1× Non-Essential amino acids (Paneco, cat #F116) at 37° C. in 5% CO2 atmosphere. […]

- molecule: "COc1c(Nc2nc(Nc3cnn(C4CCCCC4)c3)ncc2C(N)=O)cccc1-c1ncn(C)n1"
  CC50 at 72 h: "≤ 0.5 µM"
- molecule: "COc1c(Nc2nc(Nc3cnn(C(C)C)c3)ncc2C(N)=O)cccc1-c1ncn(C)n1"
  CC50 at 72 h: "1 to 5 µM"
- molecule: "COc1c(Nc2nc(Nc3cnn(C)c3)ncc2C(N)=O)cccc1-c1nnc(C)o1"
  CC50 at 72 h: "> 10 µM"
- molecule: "COc1c(Nc2nc(Nc3cnn(C4CCOCC4)c3)ncc2C(N)=O)cccc1-c1ncn(C)n1"
  CC50 at 72 h: "5 to 10 µM"
- molecule: "COc1c(Nc2nc(Nc3c(C)nn(C)c3C)ncc2C(N)=O)cccc1-c1ncn(C)n1"
  CC50 at 72 h: "> 10 µM"
- molecule: "COc1c(Nc2nc(Nc3cnn(C4CCNCC4)c3)ncc2C(N)=O)cccc1-c1ncn(C)n1 [Compound 7, 2,2,2-trifluoroacetate]"
  CC50 at 72 h: "> 10 µM"
- molecule: "COc1c(Nc2nc(Nc3cnn(-c4ccccc4)c3)ncc2C(N)=O)cccc1-c1ncn(C)n1"
  CC50 at 72 h: "≤ 0.5 µM"
- molecule: "CCCCCCn1cc(Nc2ncc(C(N)=O)c(Nc3cccc(-c4ncn(C)n4)c3OC)n2)cn1"
  CC50 at 72 h: "0.5 to 1 µM"
- molecule: "COc1c(Nc2nc(Nc3cnn(CCCN(C)C)c3)ncc2C(N)=O)cccc1-c1ncn(C)n1"
  CC50 at 72 h: "> 10 µM"
- molecule: "COc1c(Nc2nc(Nc3cnn(C(C)C)c3)ncc2C(N)=O)cccc1-c1nc2ccccc2o1"
  CC50 at 72 h: "0.5 to 1 µM"
- molecule: "COc1c(Nc2nc(Nc3cnn(C)c3)ncc2C(N)=O)cccc1-c1ncn(C)n1"
  CC50 at 72 h: "5 to 10 µM"
- molecule: "COc1c(Nc2nc(Nc3cnn(C4CCNCC4)c3)ncc2C(N)=O)cccc1-c1nc2ccccc2o1"
  CC50 at 72 h: "5 to 10 µM"
- molecule: "COc1c(Nc2nc(Nc3cnn(CC4CCCCC4)c3)ncc2C(N)=O)cccc1-c1ncn(C)n1"
  CC50 at 72 h: "1 to 5 µM"
- molecule: "COc1c(Nc2nc(Nc3cnn(CCC(C)C)c3)ncc2C(N)=O)cccc1-c1ncn(C)n1"
  CC50 at 72 h: "0.5 to 1 µM"
- molecule: "COc1c(Nc2nc(Nc3cnn(C)c3)ncc2C(N)=O)cccc1-c1ccccn1"
  CC50 at 72 h: "1 to 5 µM"
- molecule: "COc1c(Nc2nc(Nc3cnn(C45CC6CC(CC(C6)C4)C5)c3)ncc2C(N)=O)cccc1-c1ncn(C)n1"
  CC50 at 72 h: "0.5 to 1 µM"
- molecule: "CCn1nc(C)c(Nc2ncc(C(N)=O)c(Nc3cccc(-c4ncn(C)n4)c3OC)n2)c1C"
  CC50 at 72 h: "> 10 µM"
- molecule: "COc1c(Nc2nc(Nc3cnn(C)c3)ncc2C(N)=O)cccc1-c1nc2ccccc2o1"
  CC50 at 72 h: "1 to 5 µM"
- molecule: "COc1c(Nc2nc(Nc3cnn(CCN(CC(C)C)CC(C)C)c3)ncc2C(N)=O)cccc1-c1ncn(C)n1"
  CC50 at 72 h: "1 to 5 µM"

----------
- assayOverview: Proliferation inhibition assay (CellTiter-Glo), Ba/F3 JAK2 wt
- Type: cell-based
- recordedConditions: mouse, Ba/F3 (JAK2 wt) cells, without IL3, 72 h; read-out: Ba/F3 JAK2 wt, CC50 3 days
Reported values of CC50 at 72 h for individual entries

- compound: "COc1c(Nc2nc(Nc3cnn(C(C)C)c3)ncc2C(N)=O)cccc1-c1nc2ccccc2o1 [Compound 16]"
  CC50 at 72 h: "> 10 µM"
- compound: "COc1c(Nc2nc(Nc3cnn(-c4ccccc4)c3)ncc2C(N)=O)cccc1-c1ncn(C)n1 [Compound 6]"
  CC50 at 72 h: "> 10 µM"
- compound: "COc1c(Nc2nc(Nc3cnn(C(C)C)c3)ncc2C(N)=O)cccc1-c1ncn(C)n1 [Compound 4]"
  CC50 at 72 h: "5 to 10 µM"
- compound: "COc1c(Nc2nc(Nc3c(C)nn(C)c3C)ncc2C(N)=O)cccc1-c1ncn(C)n1 [Compound 17]"
  CC50 at 72 h: "> 10 µM"

----------
Reported values of EC50 for individual entries
- targetUnderTest: JAK2 JH2 (Homo sapiens)
- Construct: Enzyme: JAK2 JH2, His-Avi-Tag, Biotin-Labeled (BPS Bioscience, Cat #79074) 1 nM; His
- assayOverview: JAK2 JH2 TR-FRET Assay
- recordedConditions: JAK2 JH2 1 nM, Tracer ZE84-0003 10 nM

- smilesData: "COc1c(Nc2nc(Nc3cnn(C)c3)ncc2C(N)=O)cccc1-c1nnc(C)o1"
  EC50: "10 to 50 nM"
- smilesData: "COc1c(Nc2nc(Nc3cnn(C4CCN(C(C)C)CC4)c3)ncc2C(N)=O)cccc1-c1ccccn1"
  EC50: "50 to 100 nM"
- smilesData: "COc1c(Nc2nc(Nc3cnn(C)c3)ncc2C(N)=O)cccc1-c1cccnc1"
  EC50: "10 to 50 nM"
- smilesData: "COc1c(Nc2nc(Nc3cnn(C45CC6CC(CC(C6)C4)C5)c3)ncc2C(N)=O)cccc1-c1ncn(C)n1"
  EC50: "10 to 50 nM"
- smilesData: "COc1c(Nc2nc(Nc3cnn(C(C)C)c3)ncc2C(=O)N(C)C)cccc1-c1ncn(C)n1"
  EC50: "> 100 nM"
- smilesData: "COc1c(Nc2nc(Nc3cn(C)nc3C)ncc2C(N)=O)cccc1-c1ncn(C)n1"
  EC50: "> 100 nM"
- smilesData: "COc1c(Nc2nc(Nc3cnn(C(C)C)c3)ncc2C(N)=O)cccc1-c1ccccn1"
  EC50: "10 to 50 nM"
- smilesData: "COc1c(Nc2nc(Nc3cnn(C(C)C)c3)ncc2C(N)=O)cccc1-c1ncn(C)n1"
  EC50: "≤ 10 nM"

----------
- Tested on: Ba/F3 (JAK2 V617F) cells
- assayOverview: Proliferation inhibition assay (CellTiter-Glo), Ba/F3 JAK2 V617F
- Assay type: cell-based
- recordedConditions: Mus musculus, BaF3; without IL3, 72 h; read-out: Ba/F3 JAK2 V617F, CC50 3 days

- compound: "COc1c(Nc2nc(Nc3cnn(CCC(C)C)c3)ncc2C(N)=O)cccc1-c1ncn(C)n1 [Compound 24]"
  CC50: "≤ 0.5 µM"
- compound: "COc1c(Nc2nc(Nc3cnn(C45CC6CC(CC(C6)C4)C5)c3)ncc2C(N)=O)cccc1-c1nc2ccccc2o1 [Compound 49]"
  CC50: "5 to 10 µM"
- compound: "COc1c(Nc2nc(Nc3cnn(C)c3)ncc2C(N)=O)cccc1-c1ccncc1 [Compound 37]"
  CC50: "5 to 10 µM"
- compound: "COc1c(Nc2nc(Nc3cnn(CC4CCCCC4)c3)ncc2C(N)=O)cccc1-c1ncn(C)n1 [Compound 22]"
  CC50: "≤ 0.5 µM"

----------
- targetUnderTest: JAK2 JH2 (Homo sapiens, UniProt O60674)
- Construct: Enzyme: JAK2 JH2, His-Avi-Tag, Biotin-Labeled (BPS Bioscience, Cat #79074) 1 nM; His
- Sequence (O60674 545-809 limits assumed): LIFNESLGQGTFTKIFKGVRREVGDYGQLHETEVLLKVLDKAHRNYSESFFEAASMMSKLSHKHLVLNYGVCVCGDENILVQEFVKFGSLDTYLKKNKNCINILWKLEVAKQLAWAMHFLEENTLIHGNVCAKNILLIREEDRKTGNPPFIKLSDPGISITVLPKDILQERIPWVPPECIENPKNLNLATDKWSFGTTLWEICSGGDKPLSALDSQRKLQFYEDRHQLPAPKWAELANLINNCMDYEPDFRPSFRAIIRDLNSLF
- assayOverview: JAK2 JH2 TR-FRET Assay
- recordedConditions: JAK2 JH2 1 nM, Tracer ZE84-0003 10 nM
pEC50: −log10 of the molar value.
Reported values of pEC50 for individual entries
endpointName: pEC50

- compound: "CCOCCn1cc(Nc2ncc(C(N)=O)c(Nc3cccc(-c4nc5ccccc5o4)c3OC)n2)cn1 [Compound 54]"
  measValue: "7.30 to 8.00"
- compound: "CCOCCn1cc(Nc2ncc(C(N)=O)c(Nc3cccc(-c4ncn(C)n4)c3OC)n2)cn1 [Compound 55]"
  measValue: "7.30 to 8.00"
- compound: "COCCCn1cc(Nc2ncc(C(N)=O)c(Nc3cccc(-c4nc5ccccc5o4)c3OC)n2)cn1 [Compound 52]"
  measValue: "7.30 to 8.00"
- compound: "COCCn1cc(Nc2ncc(C(N)=O)c(Nc3cccc(-c4ncn(C)n4)c3OC)n2)cn1 [Compound 51]"
  measValue: "7.30 to 8.00"
- compound: "COc1c(Nc2nc(Nc3cnn(CCN(CC(C)C)CC(C)C)c3)ncc2C(N)=O)cccc1-c1ccccn1 [Compound 42]"
  measValue: "< 7.00"
- compound: "COc1c(Nc2nc(Nc3cnn(C4CCCCC4)c3)ncc2C(N)=O)cccc1-c1ccccn1 [Compound 39]"
  measValue: "7.00 to 7.30"
- compound: "CCCn1nc(C)c(Nc2ncc(C(N)=O)c(Nc3cccc(-c4ncn(C)n4)c3OC)n2)c1C [Compound 19]"
  measValue: "< 7.00"
- compound: "COc1c(Nc2nc(Nc3cnn(C4CCNCC4)c3)ncc2C(N)=O)cccc1-c1nc2ccccc2o1 [Compound 8]"
  measValue: "≥ 8.00"

The reported numbers originate from patent US20260217688A1.
